The values you see were collected from the Human Domainome abundance scans (Beltran et al. 2025).

Record form. Attribute: abundance fitness. Fill in for each entry.
B1: POU domain, class 3, transcription factor 4, residues 280 to 335; numbered along this chain, P49335 (parent)
chain: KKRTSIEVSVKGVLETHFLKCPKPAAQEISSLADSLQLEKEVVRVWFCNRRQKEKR

variants of: B1; experiment: abundance fitness (aPCA) (normalised: wild type 0, dead -1); higher = more abundant; growth selection in yeast, the domain comes from the species named; details: Homo sapiens
# output: bare number, no unit

I am curious: what abundance fitness value has been reported for `N49E` ? 0.117

Would you kindly repeat that for `S5T` ? 0.217

Would you kindly repeat that for `S9P` ? -0.335

Would you kindly repeat that for `L32P` ? -0.176

Would you kindly repeat that for `V8K` ? 0.842

Would you kindly repeat that for `L19P` ? -0.774

Would you kindly repeat that for `V10H` ? -0.133

Would you kindly repeat that for `K2C` ? -0.8

Would you kindly repeat that for `T4H` ? -0.925

Would you kindly repeat that for `F18H` ? -0.251

Would you kindly repeat that for `E54C` ? -0.897

Would you kindly repeat that for `Q27G` ? -0.172

Would you kindly repeat that for `Q37L` ? -0.664

Would you kindly repeat that for `V13E` ? -0.182

Would you kindly repeat that for `D34M` ? -0.479

Would you kindly repeat that for `E39N` ? -0.134

Would you kindly repeat that for `K2Q` ? -0.637

Would you kindly repeat that for `R3F` ? -0.226

Would you kindly repeat that for `F18Y` ? -0.195

Would you kindly repeat that for `A33V` ? -1.02

Would you kindly repeat that for `S30D` ? 0.08

Would you kindly repeat that for `V43R` ? -0.738
